Tested on: human spermatozoa
Experiment: total motile sperm, percent change vs DMSO (non-capacitating); higher = more of the measured sperm population than DMSO, for viability, fewer PI-positive (dead) cells than DMSO
Settings: incubation time: 6h incubation, 9.99 µM
Counter-ions that a name gives are not always drawn.
Catalogue of total motile sperm values
experimental-readout: total motile sperm (%)

>>> df
                                   compound       assay_system  measured_result
0  CCS(=O)(=O)Nc1ccc2c(c1)/C(=C(/Nc1ccc(CN3CCCCC3)cc1)c1ccccc1)C(=O)N2 [Hesperadin hydrochloride]  human spermatozoa            -15.3
1  COCC(=O)O[C@]1(CCN(C)CCCc2nc3ccccc3[nH]2)CCc2cc(F)ccc2[C@@H]1C(C)C [Mibefradil]  human spermatozoa             -7.2
2  N=C(N)Nc1nc2ccccc2[nH]1 [2-Guanidinobenzimidazole]  human spermatozoa             1.24
3  COc1cc(C)c2c(Oc3cccc(C(F)(F)F)c3)c(OC)cc(NC(C)CCCN)c2n1 (centres undefined) [Tafenoquine]  human spermatozoa            -79.5

* * *

Tested on: human spermatozoa
Assay: progressively motile sperm, percent change vs DMSO (non-capacitating); higher = more of the measured sperm population than DMSO, for viability, fewer PI-positive (dead) cells than DMSO; extreme values may be limits of the assay
Conditions: incubation time: 6h incubation, 9.99 µM
Structures can show the parent of a compound that is named as a salt.
In this section, each of the molecules is paired with its reported progressively motile sperm.
experimental-readout: progressively motile sperm (%)

>>> df
                                   molecule  measured_result
0  CCc1cc(Nc2nccc(-c3c(-c4ccc(OC)c(C(=O)Nc5c(F)cccc5F)c4)nc4ccccn34)n2)c(OC)cc1N1CCC(N2CCN(S(C)(=O)=O)CC2)CC1             50.7
1  Clc1ccc(C(OCCN2CCCCC2)c2ccccc2)cc1 (stereo not given) [Cloperastine hydrochloride]            -86.3
2  Oc1c(Cl)cc(Cl)cc1Sc1cc(Cl)cc(Cl)c1O [Bithionol]             17.4
3  CCCCC(CC)C/N=C(\N)N/C(N)=N/CCCCCC/N=C(\N)N/C(N)=N/CC(CC)CCCC (stereo not given) [Alexidine dihydrochloride]             -100
4           c1ccc2c(c1)SCc1c-2[nH]c2ccccc12              -76

* * *

Test system: HeLa
Assay: HeLa toxicity: nuclei-count effect normalised to DMSO (DMSO = 0); higher = more features changed / larger toxic effect
Settings: incubation time: 24h incubation; 9.99 µM
Counter-ions that a name gives are not always drawn.
Lab note: compare HeLa toxicity: nuclei-count effect normalised against 20%. Equal or greater, write 1.0. Smaller, write 0.0.

In [3]: df
Out[3]:
                                   compound  assay_system  cat
0  Nc1nc(Cl)nc2c1ncn2[C@@H]1O[C@H](CO)[C@@H](O)[C@@H]1F          HeLa  1.0
1  COc1cn(-c2ccc(-n3cccn3)cc2F)nc(-c2ccnn2-c2ccccc2)c1=O          HeLa  0.0
2  CC(C)[C@H]1c2ccc(F)cc2CC[C@@]1(CCN(C)CCCc1nc2ccccc2[nH]1)OC(=O)C1CC1 [NNC 55-0396 dihydrochloride]          HeLa  1.0
3  O=C(Nc1ccc([N+](=O)[O-])cc1Cl)c1cc(Cl)ccc1O [Niclosamide]          HeLa  1.0
4      O=c1c(-c2ccc(O)cc2)coc2cc(O)cc(O)c12          HeLa  0.0
5  COc1cc2nc(N(C)CCCNC(=O)C3CCCO3)nc(N)c2cc1OC (stereo not drawn)          HeLa  0.0
6  CCOc1ccccc1OCCN[C@H](C)Cc1ccc(OC)c(S(N)(=O)=O)c1          HeLa  0.0
7  O=C(N1CCCCC1)N1CCCCC1Cc1ccccc1 (stereo not drawn)          HeLa  0.0

* * *

Test system: human spermatozoa
Test: progressively motile sperm, percent change vs DMSO (non-capacitating); higher = more of the measured sperm population than DMSO, for viability, fewer PI-positive (dead) cells than DMSO; extreme values may be limits of the assay
Settings: incubation time: 6h incubation, 9.99 µM
Structures can show the parent of a compound that is named as a salt.
Here, each record is paired with measured progressively motile sperm data.
experimental-readout: progressively motile sperm (%)

                                    molecule  measured_result
 0  CCCCN1C[C@@H](O)[C@H](O)[C@H](O)[C@@H]1CO             8.15
 1  COCC(=O)O[C@]1(CCN(C)CCCc2nc3ccccc3[nH]2)CCc2cc(F)ccc2[C@@H]1C(C)C             27.4
 2  Oc1c(Cl)cc(Cl)c(Cl)c1Cc1c(O)c(Cl)cc(Cl)c1Cl            -37.2
 3  CCc1c(C)nc(SCC(=O)Nc2nc(-c3ccc(OC)cc3)cs2)[nH]c1=O             4.81
 4  CC(C)C(C(=O)OC(C#N)c1cccc(Oc2ccccc2)c1)c1ccc(Cl)cc1 (stereo unspecified) [Fenvalerate]             11.3
 5         CC(C)Cn1c(=O)n(C)c(=O)c2[nH]cnc21             53.1
 6  O=S(=O)(NCCNC/C=C/c1ccc(Br)cc1)c1cccc2cnccc12 [H 89 dihydrochloride]             27.7
 7  CNc1ccc2oc(C[C@H]3O[C@@]4(CC[C@H]3C)O[C@H]([C@H](C)C(=O)c3ccc[nH]3)[C@H](C)C[C@H]4C)nc2c1C(=O)O            -99.9
 8  CN(C)CCCn1cc(C2=C(c3c[nH]c4ccccc34)C(=O)NC2=O)c2ccccc21             23.9
 9  Nc1ccc(-c2ccc3ncc4ccc(=O)n(-c5cccc(C(F)(F)F)c5)c4c3c2)cn1             89.8
10  COc1cc2c(cc1OC)-c1c/c(=N\c3c(C)cc(C)cc3C)n(C)c(=O)n1CC2 [Trequinsin hydrochloride]             76.6
11  [O]=[V]([O-])([O-])[O-] [Sodium orthovanadate]               20
12  COc1cc2nc(N(C)CCCNC(=O)C3CCCO3)nc(N)c2cc1OC (stereo unspecified)             16.7
13  C=C[C@@]1(C)CC(=O)[C@@]2(O)[C@](C)(O1)[C@@H](OC(C)=O)[C@@H](O)C1C(C)(C)CC[C@H](O)[C@@]12C (stereo partly specified)           -0.781
14  OCCN(CCO)c1nc(N2CCCCC2)c2nc(N(CCO)CCO)nc(N3CCCCC3)c2n1             82.1
15  CCCCC/C=C\C/C=C\C/C=C\C/C=C\CCCC(=O)NCCO [Anandamide]             15.3

* * *

System: human spermatozoa
Test: progressively motile sperm, percent change vs DMSO (non-capacitating); higher = more of the measured sperm population than DMSO, for viability, fewer PI-positive (dead) cells than DMSO; extreme values may be limits of the assay
Settings: incubation time: 10min incubation, 9.99 µM
Below: a set of entries, each annotated with reported progressively motile sperm.
experimental-readout: progressively motile sperm (%)

>>> print(df.to_string())
                                        mol        experimental_readout  measured_result
0  CC(C)(C)c1ccc(S(=O)(=O)Nc2cnc3[nH]c(C(=O)N[C@H]4CCC[C@H]4O)c(-c4ccccc4)c3c2)cc1  progressively motile sperm            -18.5
1                            NC(=O)c1cccnc1  progressively motile sperm             15.4
2  COc1cn(-c2ccc(-n3cccn3)cc2F)nc(-c2ccnn2-c2ccccc2)c1=O  progressively motile sperm             26.4

* * *

Tested on: human spermatozoa
Test: progressively motile sperm, percent change vs DMSO (non-capacitating); higher = more of the measured sperm population than DMSO, for viability, fewer PI-positive (dead) cells than DMSO; extreme values may be limits of the assay
Conditions: incubation time: 6h incubation, 29.9 µM
Structures can show the parent of a compound that is named as a salt.
Label Yes for high-side progressively motile sperm (at or above -30%) and No for low-side progressively motile sperm (below it).

compound	cat
O=C(c1cccs1)c1no[n+]([O-])c1C(=O)c1cccs1	No
Nc1ccc(-c2ccc3ncc4ccc(=O)n(-c5cccc(C(F)(F)F)c5)c4c3c2)cn1 [Torin 2]	Yes
O=S(=O)(NCCNC/C=C/c1ccc(Br)cc1)c1cccc2cnccc12 [H 89 dihydrochloride]	Yes
O=C(O)c1ccc(/C=C2/SC(=S)N(c3cccc(C(F)(F)F)c3)C2=O)cc1 [CTFRinh-172]	Yes
CC(C)Cn1cnc2c(N)nc3ccccc3c21 [Imiquimod]	Yes
CCOC(=O)CSc1nc(=O)c(NCC(=O)OC)n[nH]1 [Compound B4]	Yes
CCCCCCCCCCCCCCCCOCC(COCC(F)(F)F)OP(=O)([O-])OC (stereo unspecified) [MJ33]	Yes
[O-][S+](c1ccccc1)c1ccc2nnnn2n1 (stereo unspecified) [Ro 106-9920]	No
CCc1c(C)nc(SCC(=O)Nc2nc(-c3ccc(OC)cc3)cs2)[nH]c1=O [T16Ainh-A01]	Yes
CC1(C)CC=C(c2ccccc2)c2cc(/C=C/c3ccc(C(=O)O)cc3)ccc21	Yes
COc1cc(C)c2c(Oc3cccc(C(F)(F)F)c3)c(OC)cc(NC(C)CCCN)c2n1 (stereo unspecified) [Tafenoquine]	No
CCCCCCOC(=O)[C@]1(O)C[C@@H]2O[C@@]1(C)n1c3ccccc3c3c4c(c5c6ccccc6n2c5c31)C(=O)NC4 [KT 5720]	Yes
CNS(=O)(=O)c1ccccc1Nc1nc(Nc2ccc(C3CCN(C)CC3)cc2OC)ncc1Cl [Compound 19]	No
Cc1sc2c(c1C)C(c1ccc(Cl)cc1)=N[C@@H](CC(=O)OC(C)(C)C)c1nnc(C)n1-2 [JQ1]	Yes
CO[C@H]1[C@@H](OC)C[C@H](C)[C@@H](OC)C2=CC(=O)C=C(NC(=O)/C(C)=C/C=C/[C@H](OC)[C@@H](OC(N)=O)/C(C)=C/[C@@H]1C)C2=O [Herbimycin a]	No

Sourced from the supplement of paper PMC10878532
